test: insulin gene promoter stimulation in islet cells – imaging, TRM-6 cells, eGFP reporter, cell count, primary screen (AID 1296); settings: at 2 µM; measured here: cell count (toxicity);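 on normalized cell count: cells counted after 48 h compound exposure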
Among all 130,000 compounds or so, about 1,000 (0.77%) were called active. Another 1% or so got no clear call; they are omitted. The sample holds actives, similar compounds and a random draw of the others, so the mix is not that of the screen.
assay.readout: normalized cell count (%)
Hi! Could you send only the number? It should be in %, unit omitted.

Data request: For `CCN(CC)CC1(O)CCN(C(=O)c2ccc(Cl)c(Cl)c2)CC1` , write its normalized cell count.
Data returned: 33.3

Data request: Annotate the compound `Cc1cc(=O)oc(C)c1C(=O)N1CCCCC1` with its measured normalized cell count.
Data returned: 82.9

Data request: Please indicate normalized cell count recorded for `Cc1ccc(-n2ncc3c(Nc4cccc(C(=O)O)c4)ncnc32)cc1`
Data returned: 45

Data request: Give the reported normalized cell count for this compound. `CCN(CC)C(=O)CSc1ncnc2c1cnn2-c1ccccc1`
Data returned: 43.6

Data request: Please supply the value of reported normalized cell count for the item `COc1ccc(N(C(=O)c2ccc(C)cc2)S(=O)(=O)c2cccs2)cc1`
Data returned: 171

Data request: Report measured normalized cell count; entry is `COC(=O)c1ccc(Cc2ccccc2)o1`
Data returned: 83.1

Data request: Give normalized cell count for the following compound: `COC(=O)c1ccc(CSc2ccccc2C)o1`
Data returned: 122

Data request: Assign normalized cell count to the following record: `O=C(c1ccc(Cl)c([N+](=O)[O-])c1)N1CCN(c2ccccc2)CC1`
Data returned: 49.2

Data request: Using known records, supply normalized cell count for `CN(C)c1ccc(/C=C2\NC(=S)N(Cc3ccccc3)C2=O)cc1`
Data returned: 95.4

Data request: State, in one line, measured normalized cell count of `COC(=O)c1ccc(COC(=O)c2c(C)nn(Cc3ccccc3Cl)c2Cl)o1`
Data returned: 164

Data request: Read the entry `O=C(NNc1ncnc2c1cnn2-c1ccccc1)c1ccco1` and write its reported normalized cell count.
Data returned: 142

###

test: insulin gene promoter stimulation in islet cells – imaging, TRM-6 cells, eGFP reporter, cell count, primary screen (AID 1296); settings: at 2 µM, plate-scaled: unstimulated 0, stimulated control 100
Out of some 130,000 compounds screened, about 1,000 (0.77%) were called active. Inconclusive results (about 1%) are left out.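 Rule for the calls: active = activation at 2 µM above a set limit, confirmed on inspection of the cell images; inconclusive = above the set limit but not confirmed on image inspection; inactive = the rest.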 Many of the other results were omitted from the sample, so actives are more common in it than they were.
Answer with one of the outcomes given here: active, inactive

Data request: Hi team, can someone confirm the assay call for `Cc1nc2ccc(C(=O)N3CCSCC3)cc2s1` ?
Data returned: inactive

Data request: Fill in: this test's call for `CCN(CC)CC1(O)CCN(C(=O)c2ccc(Cl)c(Cl)c2)CC1` is ___
Data returned: active

Data request: Dear colleague, could you share the recorded outcome for `O=C(c1ccc(Cl)c([N+](=O)[O-])c1)N1CCN(c2ccccc2)CC1` when you have a moment?
Data returned: inactive

###

Answer each item with its documented activation.
experiment: insulin gene promoter stimulation in islet cells – imaging, TRM-6 cells, eGFP reporter, cell count, primary screen (AID 1296); conditions: at 2 µM; stronger effect = higher value, plate-scaled: unstimulated 0, stimulated control 100;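 on activation: share of cells whose green reporter signal exceeds an intensity cutoff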
About 1,000 (0.77%) of roughly 130,000 compounds were called active. Another 1% or so got no clear call; they are omitted. Shown is part of a subset that was picked to be rich in actives.
Give just the numeric value; % need not be written.

Data request: Please report the measured activation for OC1CSc2nc3ccccc3n2C1 (stereo not given)
Data returned: 0

Data request: Find the measured activation of `CCN(CC(=O)Nc1ccc(Cl)c(S(=O)(=O)N(C)C)c1)Cc1nc2ccccc2c(=O)[nH]1` and report it.
Data returned: 8.33

Data request: Query activation for `O=S(=O)(c1cccs1)N1CCc2ccccc2C1`
Data returned: -90.9

Data request: Using the record for `O=C(CSc1nc2ccccc2o1)N1c2ccccc2Sc2ccc(Cl)cc21` , state its measured activation.
Data returned: -4.44

Data request: Recall and state the measured activation for `COc1cc(/C=C/C(=O)OCC(=O)Nc2cccc(Oc3ccccc3)c2)ccc1O` .
Data returned: 3.57

Data request: Quickly give me recorded activation for `O=C(CN(c1ccccc1)S(=O)(=O)c1ccc(Cl)cc1)Nc1ccccc1C(=O)N1CCCC1`
Data returned: 93.5

Data request: Supply measured activation of `O=C(Nc1ccncc1)c1cc2ccccc2o1` in your reply.
Data returned: 342

Data request: Return activation for the following molecule: `Cc1nnc(SCc2cccc(Cl)c2)n(N)c1=O`
Data returned: 508

Data request: Output measured activation for this item: `CCCn1c(=S)[nH]c2ccc(C(F)(F)F)cc21`
Data returned: 205

Data request: Could you please provide reported activation for CC1CCCN(CCOCCOc2ccccc2-c2ccccc2)C1 (stereo not given) ? Thanks!
Data returned: 7.14

Data request: # return recorded activation for input `Cc1ccc(OC(=O)c2cc3ccccc3o2)cc1`
Data returned: 79.3

Data request: Return reported activation. Input molecule: `Cc1ccc2cc3cc(C(=O)N4CCCCCC4)oc3nc2c1`
Data returned: 183

Data request: Given `Cc1cc(=O)oc(C)c1C(=O)N1CCCCC1` , respond with its activation.
Data returned: 5.26

Data request: Tell me its activation given `N#CCC(=O)NC(=O)NCC1CC1` as the entry.
Data returned: 9.09

Data request: Look up and report measured activation for this entry: `COc1ccc(C(=O)N/N=c2\oc3ccccc3cc2C(N)=O)cc1`
Data returned: 0

Data request: Supply activation value. Item: CC1=NNC(=O)C1CCC(=O)N/N=C\c1ccc(Cl)c(Cl)c1 (stereo not given)
Data returned: 0

Data request: Check the records and state activation for `NC(=O)c1ccc(CN2CCC(Cc3ccccc3)CC2)cc1`
Data returned: 347

Data request: Read the entry `O=C(NCN1CCN(CCO)CC1)c1cnccn1` and write its reported activation.
Data returned: 6.67

Data request: Please indicate activation recorded for `COc1ccccc1-c1nc(SC)n[nH]1`
Data returned: -5.26

Data request: Please list activation recorded for the molecule `O=C(Nc1ccccc1)N1CCN(Cc2ccccc2)CC1`
Data returned: 4.22

Data request: Supply reported activation belonging to this molecule: `COc1ccc(CC(=O)Nc2ccc(-c3nnc(-c4ccccc4)o3)cc2)cc1`
Data returned: 6.45

Data request: For Cc1ccc(S(=O)(=O)c2ccc(Cl)cc2)cc1S(=O)(=O)NC(C(=O)O)C(C)C (stereo not given) , write its activation.
Data returned: 3.85

Data request: Give the reported value of activation for this record: CC1Cc2ccccc2N1C(=O)CSc1nc2ccccc2o1 (stereo not given)
Data returned: 7.14

Data request: Input CCCOCC(O)CC(CC)C(=O)NNC(=S)Nc1ccccc1 (stereo not given) , output reported activation.
Data returned: 0

Data request: Specify measured activation for `CCCC(=O)C1CCN(Cc2ccccc2)CC1` .
Data returned: 0

###

experiment: insulin gene promoter stimulation in islet cells – imaging, TRM-6 cells (human fetal islet line), eGFP reporter, cell count, primary screen (AID 1296); details: at 2 µM; stronger effect = higher value, plate-scaled: unstimulated 0, stimulated control 100
Hit rate of the full screen: of about 130,000 compounds, about 1,000 (0.77%) were called active. Roughly 1% stayed inconclusive and do not appear here. For the sample, actives were picked, then their nearest neighbours and some compounds at random.
assay.readout: activation (%)
Provide only the numeric value, understood in %.

Data request: Given `COc1ccc(-c2noc(CSc3ccc(C)cc3)n2)cc1` , respond with its activation.
Data returned: 521

Data request: Tell me measured activation for `CCOC(=O)c1c(NC(=O)c2ccc(Br)o2)sc2c1CCCC2` please.
Data returned: -3.7

Data request: Look up activation of Cc1cc(C)cc(NC(=O)c2cccc(NC(=O)C3C4CC5OC(=O)C3C5C4)c2)c1 (centres undefined) and report it.
Data returned: 76.7

Data request: Look up activation of Cc1cccc(N(C(=O)Cc2cccs2)C(C(=O)NCc2ccco2)c2ccncc2)c1 (centres undefined) and report it.
Data returned: 107

Data request: Using known records, supply activation for CC1CC(C)CN(C(=O)CSc2ccsc2[N+](=O)[O-])C1 (centres undefined)
Data returned: 0

Data request: Please look at this compound and report its activation: `CN(c1ccc(OCC(=O)OCC(=O)Nc2cccc([N+](=O)[O-])c2)cc1)S(=O)(=O)c1ccc(F)cc1`
Data returned: -8.57

Data request: Provide one value: measured activation of `CCS(=O)(=O)Nc1cc(C(=O)OC)ccc1C(=O)OC`
Data returned: -6.67

Data request: Answer with reported activation of `COc1ccc(-c2noc(-c3ccc(C)cc3)n2)cc1`
Data returned: 1.41

Data request: Identify measured activation associated with `COc1ccc(-n2nc3c(c2NC(=O)c2ccc(N4C(=O)CCC4=O)cc2)CSC3)cc1`
Data returned: -5.88

Data request: Let me know recorded activation for `Nc1ccc(-n2nncc2-c2ccco2)cc1` , thanks.
Data returned: 406

Data request: Quote activation reported for `CCOc1ccc(NC(=S)NC(=O)/C=C/c2ccc(OC)cc2)c([N+](=O)[O-])c1` please.
Data returned: 8.82

Data request: Quote activation reported for `Cc1cs/c(=N\N=C\c2ccc(O)cc2)n1Cc1ccco1` please.
Data returned: -7.69

Data request: State, in one line, measured activation of Cc1cccc(NC(=O)C2CC(=O)OC23CCCC3)c1 (centres undefined)
Data returned: 7.14

Data request: Please give measured activation of the following entry: CC(NC(=O)Nc1ccc2c(c1)OCO2)c1ccncc1 (centres undefined)
Data returned: -5.26

Data request: Specify reported activation for the compound shown: `COC(=O)c1cc(OC)c(OC)cc1NC(=O)CSc1ccc(C)cc1`
Data returned: 3.33

Data request: Look up and state reported activation for `CS(=O)(=O)N(CC(=O)Nc1ccc(Cl)c(Cl)c1)C1CCCCC1`
Data returned: 5.71

Data request: Please give measured activation of the following entry: `CC1(C)CC(=O)c2cnc3nc4ccccc4n3c2C1`
Data returned: -76.2

Data request: Could you please provide reported activation for `C/C(=N\NC(=O)c1ccc(NS(=O)(=O)c2cccs2)cc1)c1ccc2ccccc2c1` ? Thanks!
Data returned: 157

Data request: Let me know recorded activation for `COC(=O)CSc1nnc(-c2cccnc2)o1` , thanks.
Data returned: 5.13

Data request: Complete the entry with activation for `CN(c1ccccc1)c1ccc(/C=c2\s/c(=C(/C#N)C(=O)C(C)(C)C)n(Cc3ccco3)c2=O)cc1`
Data returned: 178

Data request: Please supply the value of reported activation for the item `COc1ccc(C)cc1NC(=O)CSc1ccc(Cl)cc1`
Data returned: -5.56

Data request: Please look at this compound and report its activation: `CCN(CCO)C(=S)Nc1cc(C(=O)OC)ccc1C(=O)OC`
Data returned: 3.45

Data request: Write down activation measured for item `Cc1nc(SCc2ccc(F)cc2)c([N+](=O)[O-])[nH]1`
Data returned: 9.09

Data request: Kindly indicate its recorded activation. Item: `Cc1cc(C)cc(NC(=O)CSc2ccccc2)c1`
Data returned: 525

Data request: Answer with the recorded activation of `CCN(CC(=O)NC(=O)NCc1ccccc1)Cc1nc2ccccc2c(=O)[nH]1` only.
Data returned: 8.33

Data request: Check the records and state activation for `Cc1nn(C)c(Oc2ccccc2)c1[N+](=O)[O-]`
Data returned: 7.04

Data request: // Input: `Cc1ccc(-c2noc(CSc3nnc(-c4ccccc4)n3C)n2)cc1` . Output its activation only.
Data returned: -8.33

Data request: Tell me activation reported for `CCOC(=O)c1c(NC(=O)CSc2nnc(C)c(=O)[nH]2)sc2c1CCC2`
Data returned: 8.33

Data request: Supply recorded activation for `Cc1[nH]c2ccccc2c1SCC(=O)Nc1nccs1` here.
Data returned: 5.56

Data request: Tell me measured activation for `O=C(CCCN1C(=O)CCC1=O)Nc1ccc(Cl)c(C(F)(F)F)c1` please.
Data returned: 444

Data request: Return the recorded activation value; entry: `O=C(CSc1nnc(-c2c[nH]c3ccccc23)o1)c1ccccc1`
Data returned: 0

Data request: Write down activation measured for item `CC(C)C[C@@H](N)c1nnc(SCC(=O)c2ccc(Cl)cc2)o1`
Data returned: 533

Data request: Given the compound `OCCNCCOc1ccc(Cl)c(Cl)c1` , write its reported activation.
Data returned: -3.85

Data request: Give the reported activation for this compound. `Cn1c(SCC(=O)N2CCCc3ccccc32)nc2ccccc2c1=O`
Data returned: 57.1

Data request: For the compound `Cc1cccc(C)c1OC(=O)CSc1nnc(-c2ccccc2)o1` , give its reported activation.
Data returned: 487

Data request: Fill in reported activation for this entry: O=C(NC1CCCC1)C(NS(=O)(=O)c1ccc(Br)s1)c1ccccc1 (centres undefined)
Data returned: 107

Data request: Give reported activation value for `CC(=O)NCCC(=O)Nc1nc(C)c(Cc2ccc3c(c2)OCO3)s1`
Data returned: 0

Data request: Output activation of `CCOc1cc(/C=C2/C(=N)N3OC(C)=CC3=NC2=O)ccc1OC`
Data returned: 6.67

Data request: Query activation for CCOC(=O)C(NC(=O)CC(C)C)(Nc1sc2c(c1C(N)=O)CCCC2)C(F)(F)F (centres undefined)
Data returned: 450
